# System: LOX IMVI melanoma
# Test Description: NCI-60 one-dose screen, 48 h (100 = growth as untreated, 0 = no growth, -100 = all killed)
# Measurement Parameters: 10 µM unless noted
This is part of a sample that, as a whole, favours compounds with a hit. Of some 83,000 tested, about 20% had one in any assay. Activity calls are given as the source filed them. How the source made its calls: active means growth percent below 10; inactive means the rest.
Metric: growth

>  <Compound>
Cc1nc2c(-c3cnc(N)nc3)nc(N3CCOCC3)nc2n1C(C)C

>  <Tested On>
LOX IMVI melanoma

>  <Obs Value>
-1.69% (active)

$$$$
>  <Compound>
Clc1ccccc1Nc1nnc(-c2ccncc2)s1

>  <Tested On>
LOX IMVI melanoma

>  <Obs Value>
110% (inactive)

$$$$
>  <Compound>
O=C(Nc1ccc(Cl)c(C(F)(F)F)c1)c1ccc(Nc2ccc(Cl)nn2)cc1

>  <Tested On>
LOX IMVI melanoma

>  <Obs Value>
54.7% (inactive)

$$$$
>  <Compound>
COc1ccc(C2C3CCc4ccccc4C3=NN2C(=O)c2cc(OC)c(OC)c(OC)c2)cc1O (centres undefined)

>  <Tested On>
LOX IMVI melanoma

>  <Obs Value>
94.6% (inactive)

$$$$
>  <Compound>
COC(=O)C(C)NC1=C(Cl)C(=O)C(NC(C)C(=O)OC)=C(Cl)C1=O (centres undefined)

>  <Tested On>
LOX IMVI melanoma

>  <Obs Value>
91.1% (inactive)

$$$$
>  <Compound>
C=C(CN1CC=CCC1)[C@@H]1CC[C@]2(C(=O)OC)CC[C@]3(C)[C@H](CC[C@@H]4[C@@]5(C)CC[C@H](OC(C)=O)C(C)(C)[C@@H]5CC[C@]43C)[C@@H]12

>  <Tested On>
LOX IMVI melanoma

>  <Obs Value>
99.7% (inactive)

$$$$
>  <Compound>
COc1ccc2c(c1)CCCC21C(=O)Nc2ccccc21 (centres undefined)

>  <Tested On>
LOX IMVI melanoma

>  <Obs Value>
98% (inactive)

$$$$
>  <Compound>
c1ccc(-c2[nH]c3ccccc3c2-c2ccccc2)cc1

>  <Tested On>
LOX IMVI melanoma

>  <Obs Value>
79.8% (inactive)

$$$$
>  <Compound>
NCCCOc1cc2ccccc2cc1C(=O)NCCCOc1cc2ccccc2cc1C(=O)Nc1ccc(Cl)cc1O

>  <Tested On>
LOX IMVI melanoma

>  <Obs Value>
-89.6% (active)

$$$$
